Test system: ERK phosphorylation in KYSE-520 cells
test_description: Phospho-ERK cellular assay (Advanced phospho-ERK1/2 (Thr202/Tyr204) TR-FRET kit)
Format: cell-based
run_parameters: Homo sapiens, KYSE-520, 2 h, KYSE-520 cells, 2 h at 37° C., TR-FRET; read-out: pERK IC50

compound | system_name | IC50
COc1c(Sc2cnc3nc(N4CCC5(CC4)Cc4ccc(F)cc4[C@H]5N)[nH]c3n2)ccnc1N | ERK phosphorylation in KYSE-520 cells | < 1000 nM
Nc1nccc(Sc2cnc3[nH]c(N4CCC5(CC4)Cc4ccc(CF)cc4[C@H]5N)nc3n2)c1Cl | ERK phosphorylation in KYSE-520 cells | < 1000 nM
N[C@@H]1c2ccccc2CC12CCN(c1nc3ncc(Sc4cccc5nccnc45)nc3[nH]1)CC2 | ERK phosphorylation in KYSE-520 cells | < 1000 nM
N[C@@H]1c2ccccc2CC12CCN(c1nc3ncc(Sc4ccnc5cccnc45)nc3[nH]1)CC2 | ERK phosphorylation in KYSE-520 cells | < 1000 nM
COc1ncccc1Sc1cnc2[nH]c(N3CCC4(CC3)Cc3ccc(Br)cc3[C@H]4N)nc2n1 | ERK phosphorylation in KYSE-520 cells | < 1000 nM
Nc1nccc(Sc2cnc3[nH]c(N4CCC5(CC4)Cc4ccccc4[C@H]5N)nc3n2)c1F | ERK phosphorylation in KYSE-520 cells | > 5000 nM
N[C@@H]1c2ccccc2CC12CCN(c1nc3nc(Sc4cccnc4OCc4ncco4)cnc3[nH]1)CC2 | ERK phosphorylation in KYSE-520 cells | 1000 to 5000 nM
Cn1cc2c(n1)CC1(CCN(c3nc4nc(Sc5ccnc(N)c5Cl)cnc4[nH]3)CC1)C2N (centres unmarked) | ERK phosphorylation in KYSE-520 cells | < 1000 nM

====

system_name: SHP-2 enzyme (Met1-Leu525) (Homo sapiens, UniProt Q06124)
Construct: synthetized by Origene, Met1-Leu525, cat #TP750155
Sequence (Q06124 1-525): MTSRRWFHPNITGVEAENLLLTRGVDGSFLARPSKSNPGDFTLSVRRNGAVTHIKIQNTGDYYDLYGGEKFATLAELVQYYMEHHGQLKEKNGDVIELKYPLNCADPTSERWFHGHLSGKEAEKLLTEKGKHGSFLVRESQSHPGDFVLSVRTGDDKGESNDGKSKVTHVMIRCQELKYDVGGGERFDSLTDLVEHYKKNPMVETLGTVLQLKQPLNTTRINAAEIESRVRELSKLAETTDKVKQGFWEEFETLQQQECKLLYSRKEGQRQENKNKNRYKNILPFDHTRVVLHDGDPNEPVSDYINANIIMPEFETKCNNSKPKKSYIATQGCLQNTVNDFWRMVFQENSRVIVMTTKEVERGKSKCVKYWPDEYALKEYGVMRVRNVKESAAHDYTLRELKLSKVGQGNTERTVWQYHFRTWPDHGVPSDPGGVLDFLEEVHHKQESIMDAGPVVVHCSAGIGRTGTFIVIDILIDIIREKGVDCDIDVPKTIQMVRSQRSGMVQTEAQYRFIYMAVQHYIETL
test_description: SHP2 inhibition enzymatic assay (DiFMUP substrate, IRS1 peptide activation)
run_parameters: SHP2 wt; activated by 500 nM IRS1 peptide; 75 μM DiFMUP substrate
endpoint_name: IC50

molecule | result
C[C@@H]1OCC2(CCN(c3nc4nc(Sc5cccnc5C(F)(F)F)cnc4[nH]3)CC2)[C@@H]1N | < 500 nM
COc1ccc2nccc(Sc3cnc4[nH]c(N5CCC6(CC5)Cc5ccccc5[C@H]6N)nc4n3)c2n1 | < 500 nM
O=C1NCC2(CCCN(c3nc4nc(Sc5cccnc5C(F)(F)F)cnc4[nH]3)C2)O1 (centres unmarked) | > 3000 nM
FC(F)(F)c1ncccc1Sc1cnc2[nH]c(N3C[C@@H]4CC[C@H]3CN4)nc2n1 | 500 to 3000 nM
COCCn1c(N2CCC(C)(N)CC2)nc2nc(Sc3cccnc3C(F)(F)F)cnc21 | 500 to 3000 nM
CNc1nccc(Sc2cnc3[nH]c(N4CCC5(CC4)Cc4ccccc4[C@H]5N[S@+]([O-])C(C)(C)C)nc3n2)c1Cl | < 500 nM
CCn1c(N2CCC(C)(N)CC2)nc2ncc(Sc3cccnc3C(F)(F)F)nc21 | > 3000 nM
Nc1nccc(Sc2cnc3nc(N4CCC5(CC4)Cc4cc(F)ccc4[C@H]5N)[nH]c3n2)c1Cl | < 500 nM
